ASSAY INFO: Solubility of pharmaceuticals in carbon dioxide (Example 7)
Assay type: physicochemical
CONDITIONS USED: 45° C./200×10^5 Pa
ASSAY METRIC: solubility (CO2)

CC1=C(/C=C/C(C)=C/C=C/C(C)=C\C(=O)O)C(C)(C)CCC1 [Isotretionin]; 0.3 % (g/V)
CC(C)(C)NC(=O)[C@@H]1C[C@@H]2CCCC[C@@H]2CN1C[C@@H](O)[C@H](Cc1ccccc1)NC(=O)[C@H](CC(N)=O)NC(=O)c1ccc2ccccc2n1 [Saquinavir]; <0.1 % (g/V)
O=C(NCCN1CCOCC1)c1ccc(Cl)cc1 [Moclobemide]; 0.35 % (g/V)

Next item in the queue.
Tell me measured solubility (CO2) for COc1ccccc1Oc1c(NS(=O)(=O)c2ccc(C(C)(C)C)cc2)nc(-c2ncccn2)nc1OCCO [Bosentan] please.
<0.1 % (g/V)
